Recorded below: pKi, system Beta-2 adrenergic receptor (Cavia porcellus).
pKi field: float, defined as -log10 of concentration (mol/L).

Query: Specify measured pKi for Cc1cn2ccnc2c(N2CCNCC2)n1.Cl .
Result: 6.55

Query: Specify measured pKi for Cc1cn2c(C)cnc2c(N2CCNCC2)n1.Cl .
Result: 6.60

Query: Specify measured pKi for Brc1cnc(N2CCNCC2)c2nccn12 .
Result: 6.28

Query: Specify measured pKi for c1cn2ccnc2c(N2CCNCC2)n1 .
Result: 5.77

Query: Specify measured pKi for CCCc1cnc2c(N3CCNCC3)nccn12.Cl .
Result: 5.86

Query: Specify measured pKi for Cc1cnc2c(N3CCNCC3)nccn12.Cl .
Result: 5.64

Query: Specify measured pKi for CCc1cnc2c(N3CCNCC3)nccn12.Cl .
Result: 5.49

Query: Specify measured pKi for Cc1cnc(N2CCNCC2)c2nccn12.Cl .
Result: 6.09

Query: Specify measured pKi for CC(C)c1cnc2c(N3CCNCC3)nccn12.Cl .
Result: 5.70
